assay: Inhibition of Escherichia coli BL21(DE3) methionine aminopeptidase in presence of Fe(II) metal ions
pIC50: −log10 of the molar value.
recorded metric: pIC50

INSERT INTO results (smiles_structure, recorded_metric, obs_value) VALUES
  ('N#Cc1ccc(-c2ccc(O)c(O)c2)s1', 'pIC50', 4.83),
  ('Cc1nc(-c2ccc(O)c(O)c2)cs1', 'pIC50', 4.89),
  ('Cc1nc(C(=O)NC2CC2)c(-c2ccc(O)c(O)c2)s1', 'pIC50', 4.95);

###

Entries and their measured pIC50 follow.
assay: Inhibition of Escherichia coli BL21(DE3) methionine aminopeptidase in presence of Fe(II) metal ions
pIC50: −log10 of the molar value.
recorded metric: pIC50

INSERT INTO measurements (smiles_structure, obs_value) VALUES
  ('Cc1cc(-c2ccc(O)c(O)c2)c(C)s1', 5.13),
  ('Oc1ccc(-c2ccc(Cl)s2)cc1O', 4.89),
  ('CCCCc1ccsc1-c1ccc(O)c(O)c1', 5.04);
